Test system: SK-MEL-2 melanoma
Test: NCI-60 one-dose screen, 48 h (100 = growth as untreated, 0 = no growth, -100 = all killed)
Settings: 10 µM unless noted
Compounds without any hit were thinned out: in the full panel of roughly 83,000, 20% have a hit.
Readout: growth (%)
Output spec: scalar in %, unitless text.

Worked cases, growth given:
| Compound | Tgt | Measurement Unit | Reported Result |
| --- | --- | --- | --- |
| C=C(C)[C@@H]1CC[C@]2(/C=N/Nc3ccncc3)CC[C@]3(C)[C@H](CC[C@@H]4[C@@]5(C)CCCNC(C)(C)[C@@H]5CC[C@]43C)[C@@H]12 | SK-MEL-2 melanoma | % | 110 |
| COc1cnc2c(c1)C(=O)c1c-2n(CCCNCCN2CCOCC2)c(=O)c2cc([N+](=O)[O-])ccc12 | SK-MEL-2 melanoma | % | 19 |
| CC(=O)N1N=C(c2ccc(C)cc2)CC1c1ccc(Oc2ccc(Br)cc2)cc1 (stereo not given) | SK-MEL-2 melanoma | % | 106 |
| O=C1c2ccccc2NC(c2cn(-c3ccccc3)nc2-c2cccs2)N1Cc1ccccc1 (stereo not given) | SK-MEL-2 melanoma | % | 74 |

Could you now look at the following compound, please?
Query: Need growth of `C=C(C)[C@@H]1CC[C@]2(C=O)CC[C@]3(C)[C@H](CC[C@@H]4[C@@]5(C)C/C(=C/c6cccnc6)C(=O)C(C)(C)[C@@H]5CC[C@]43C)[C@@H]12` , thanks.
Reply: 88.5
